# test-description: DSSTox (CPDBAS) Carcinogenic Potency Database Summary SingleCellCall Results
# experimental-conditions: animal chronic carcinogenicity bioassays, CPDB summary call
Activity calls are given as the source filed them.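 How the source made its calls: active means a tumor-causing dose value with its tumor site reported for any sex and species group of a rodent or other animal cancer study; inconclusive means only studies judged inadequate by the national testing program; inactive means tested in at least one study, none positive.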
Labels: active, inactive

- C#C[C@]1(O)CC[C@H]2[C@@H]3CCc4cc(OC)ccc4[C@H]3CC[C@@]21C: inactive
- COc1cc(/C=C/C(=O)O[C@H]2CC[C@]34C[C@]35CC[C@]3(C)[C@@H]([C@H](C)CCC=C(C)C)CC[C@@]3(C)[C@@H]5CC[C@H]4C2(C)C)ccc1O: inactive
- CCCCNC(=O)NS(=O)(=O)c1ccc(C)cc1: inactive
- COc1cc(-c2ccc(N)c(OC)c2)ccc1N: active
- [N-]=[N+]=[N-]: inactive
- O=NN1CSCSC1: inactive
- CC/C(=C(\c1ccccc1)c1ccc(OCCN(C)C)cc1)c1ccccc1: active
- Nc1ccc(NC(=O)c2ccc(N)cc2)cc1: inactive
- OCCOCCOCCO: inactive
- N#Cc1ccc(C2CCCc3cncn32)cc1 (configuration not stated): inactive
- ClCOCCOCCl: active
- O=C(O)Cc1c[nH]c2ccccc12: inactive
- Nc1ccc(N=Nc2ccccc2)c(N)n1: active
- C[C@]12CC[C@@H]3c4ccc(O)cc4CC[C@H]3[C@@H]1CC[C@@H]2O: inactive
- Cc1ccc([N+](=O)[O-])cc1: active
- C=CCNNCC=C: active
- CN1[C@@H]2CC[C@H]1CC(OC(=O)C(CO)c1ccccc1)C2 (some centres not stated): inactive
- CC[C@H](C)C(=O)O[C@H]1C[C@@H](C)C=C2C=C[C@H](C)[C@H](CC[C@@H]3C[C@@H](O)CC(=O)O3)[C@H]21: active
- CCC[N+](=O)[O-]: inactive
- C=CC(=C)C: active
- CC(O)CN(CC(C)O)N=O (configuration not stated): active
- CN(C)C(=S)[S][Bi]([S]C(=S)N(C)C)[S]C(=S)N(C)C: inactive
- Nc1ccc(-c2ccc(N)c(N)c2)cc1N: active
- CC(=O)OCC(=O)[C@@]12N=C(C)O[C@@H]1C[C@H]1[C@@H]3CCC4=CC(=O)C=C[C@]4(C)[C@H]3[C@@H](O)C[C@@]12C: active
- O=C1CCC(=O)O1: inactive
- COC(N)=O: active
- CCCCOCCO: active

----------
# test-description: DSSTox (CPDBAS) Carcinogenic Potency Database Summary SingleCellCall Results
# experimental-conditions: animal chronic carcinogenicity bioassays, CPDB summary call
Calls of active or inactive are those of the source.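 How the source made its calls: active means a tumor-causing dose value with its tumor site reported for any sex and species group of a rodent or other animal cancer study; inconclusive means only studies judged inadequate by the national testing program; inactive means tested in at least one study, none positive.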
Labels: active, inactive

• Cc1ccc(S(=O)(=O)OCCN(C)N=O)cc1 = active
• C=CCNN = active
• CC(C)(C)NCC(O)c1cc(O)cc(O)c1 (centres undefined) = active
• C[C@@H]1C[C@H]2[C@@H]3CCC4=CC(=O)C=C[C@]4(C)[C@@]3(F)[C@@H](O)C[C@]2(C)[C@@]1(O)C(=O)CO = inactive
• C1CO1 = active
• Cn1c(=O)c2[nH]cnc2n(C)c1=O = inactive
• CC(C)CN(N=O)C(=N)N[N+](=O)[O-] = inactive
• COP(=O)(OC)O/C(=C\Cl)c1cc(Cl)c(Cl)cc1Cl = active
• CC(=O)Oc1ccccc1C(=O)O = inactive
• CC/C(C)=N/O = active
• O=[N+]([O-])c1c(Cl)c(Cl)c(Cl)c(Cl)c1Cl = active
• COc1cc2c(c3c1c(=O)c1ccccc1n3C)C=CC(C)(C)O2 = active
• O=C1c2ccccc2C(=O)c2ccccc21 = inactive
• CC(C)NCC(O)COc1ccc(CC(N)=O)cc1 (centres undefined) = inactive

----------
# test-description: DSSTox (CPDBAS) Carcinogenic Potency Database Summary SingleCellCall Results
# experimental-conditions: animal chronic carcinogenicity bioassays, CPDB summary call
Active and inactive are the calls of the source.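 Rule for the calls: active = a tumor-causing dose value with its tumor site reported for any sex and species group of a rodent or other animal cancer study; inconclusive = only studies judged inadequate by the national testing program; inactive = tested in at least one study, none positive.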
metric: outcome

- P: inactive
- c1ccc(NNc2ccccc2)cc1: active
- [S-]c1nc2ccccc2s1.[S-]c1nc2ccccc2s1.[Zn+2]: inactive; active
- ClC1(Cl)C2(Cl)C3(Cl)C4(Cl)C(Cl)(Cl)C5(Cl)C3(Cl)C1(Cl)C5(Cl)C24Cl (configuration not stated): active; inactive
- CC(C)Nc1nc(Cl)nc(NC(C)C)n1: inactive
- CCOC(=O)C1OC1(C)c1ccccc1 (configuration not stated): inactive
- OC[C@@H](O)[C@@H](O)[C@H](O)[C@H](O)CO: inactive
- ClCC(Cl)Cl: active
- NC(=O)N(CCc1ccccc1)N=O: active
- Cc1ncc[nH]1: active
- CN(Cc1cnc2nc(N)nc(N)c2n1)c1ccc(C(=O)N[C@@H](CCC(=O)O)C(=O)O)cc1: inactive
- O=P(O)(OCC(Br)CBr)OCC(Br)CBr (configuration not stated): active; inactive
- CC(=O)N[C@@H](CC(C)C)C(=O)N[C@@H](CC(C)C)C(=O)N[C@H](C=O)CCCN=C(N)N: active; inactive
- CC(=O)Nc1cccc2c1-c1ccccc1C2: inactive
- CC(=O)OC(OC(C)=O)c1ccc([N+](=O)[O-])o1: inactive
- O=C(O)COc1ccc(Cl)cc1Cl: inactive
- Nc1ccc(O)c(N)c1: active
- O=S(=O)([O-])[O-].[O]=[V+2]: inactive
- O=C(Oc1ccccc1)Oc1ccccc1: inactive
- CN(CCc1ccccc1)N=O: active
- C=CCN(CC=C)N=O: active
- ClC(Cl)Br: active
- Brc1cc(Br)c(-c2c(Br)c(Br)c(Br)c(Br)c2Br)c(Br)c1Br: active; inactive
- CCN(Cc1cccc(S(=O)(=O)O)c1)c1ccc(C(=C2C=CC(=[N+](CC)Cc3cccc(S(=O)(=O)O)c3)C=C2)c2ccccc2S(=O)(=O)[O-])cc1: inactive; active
- CN(C)CCN(C)N=O: active; inactive
- CCC(=O)C(CC(C)N(C)C)(c1ccccc1)c1ccccc1 (configuration not stated): inactive
- Nc1ccccc1C(=O)O: inactive; active

----------
# test-description: DSSTox (CPDBAS) Carcinogenic Potency Database Summary SingleCellCall Results
# experimental-conditions: animal chronic carcinogenicity bioassays, CPDB summary call
The source made the active and inactive calls.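 Rule for the calls: active = a tumor-causing dose value with its tumor site reported for any sex and species group of a rodent or other animal cancer study; inconclusive = only studies judged inadequate by the national testing program; inactive = tested in at least one study, none positive.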
Labels: t for active, f for inactive

- CC(N)Cc1ccccc1 (stereo unspecified): f
- Cc1c(COC(=O)C2C(/C=C(\Cl)C(F)(F)F)C2(C)C)cccc1-c1ccccc1 (stereo unspecified): f
- O=C1C(c2[nH]c3ccc(S(=O)(=O)O)cc3c2O)=Nc2ccc(S(=O)(=O)O)cc21: f
- COc1ccc([C@@H]2CC(=O)c3c(O)cc(O[C@@H]4O[C@H](CO[C@@H]5O[C@@H](C)[C@H](O)[C@@H](O)[C@H]5O)[C@@H](O)[C@H](O)[C@H]4O)cc3O2)cc1OC: f
- O=NN(CC(=O)O)CC(=O)O: f
- C#CC(C)(C)NC(=O)c1cc(Cl)cc(Cl)c1: t
- [O-]/[N+](=N\O)c1ccccc1: t
- O=C1CCCCC1: f
- Cc1ccccc1[N+](=O)[O-]: t
- CCCCOC(=O)c1ccccc1C(=O)OCc1ccccc1: t
- C/C1=C\C=C(\C(C)C)[C@@H](O)C/C(C)=C/CC/C(C)=C/CC1: f

----------
# test-description: DSSTox (CPDBAS) Carcinogenic Potency Database Summary SingleCellCall Results
# experimental-conditions: animal chronic carcinogenicity bioassays, CPDB summary call
Calls of active or inactive are those of the source.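 The calls were made as follows: active = a tumor-causing dose value with its tumor site reported for any sex and species group of a rodent or other animal cancer study; inconclusive = only studies judged inadequate by the national testing program; inactive = tested in at least one study, none positive.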
metric: outcome

- O=[N+]([O-])OCC(CO[N+](=O)[O-])O[N+](=O)[O-]: active
- COc1ccc([N+](=O)[O-])cc1N: active
- N[C@@H](Cc1c[nH]c2ccccc12)C(=O)O: inactive
- O=NN1CC=CCO1: active
- CC(O)CN(C)c1ccc(NN)nn1 (configuration not stated): inactive

----------
# test-description: DSSTox (CPDBAS) Carcinogenic Potency Database Summary SingleCellCall Results
# experimental-conditions: animal chronic carcinogenicity bioassays, CPDB summary call
Activity calls are given as the source filed them.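 How the source made its calls: active means a tumor-causing dose value with its tumor site reported for any sex and species group of a rodent or other animal cancer study; inconclusive means only studies judged inadequate by the national testing program; inactive means tested in at least one study, none positive.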
metric: outcome

• Cc1cc(O)c2c(c1)C(=O)c1cc(O)cc(O)c1C2=O = inactive; active
• ClCOCC(COCCl)OCCl = active
• CC(C)O = inactive
• CN[C@H]1CCc2cc(OC)c(OC)c(OC)c2-c2ccc(OC)c(=O)cc21 = inactive
• CC1=C(/C=C/C(C)=C/C=C/C(C)=C/C=C/C=C(C)/C=C/C=C(C)/C=C/C2=C(C)CCCC2(C)C)C(C)(C)CCC1 = inactive
• CCCCC(CC)COC(=O)COc1ccc(Cl)cc1Cl (configuration not stated) = inactive
• CC[N+](=O)[O-] = inactive
• CN(C)N=Nc1ccccc1 = active
• CC1=C(/C=C/C(C)=C/C=C/C(C)=C/C(=O)O)C(C)(C)CCC1 = inactive
• ClC1=C(Cl)[C@]2(Cl)[C@@H]3[C@H]4C=CC(C4)[C@@H]3C1(Cl)C2(Cl)Cl = active
• CN(C)C(=O)Nc1ccc(Cl)cc1 = active
• CC(=O)C1C(=O)C=C(C)OC1=O (configuration not stated) = inactive; active
